All values here come from patent US20210269542A1.

- Tested on: T1, cyno GITR-Fc (cynomolgus monkey)
- T1 construct: also called cGITR; cynomolgus GITR
- T1 chain: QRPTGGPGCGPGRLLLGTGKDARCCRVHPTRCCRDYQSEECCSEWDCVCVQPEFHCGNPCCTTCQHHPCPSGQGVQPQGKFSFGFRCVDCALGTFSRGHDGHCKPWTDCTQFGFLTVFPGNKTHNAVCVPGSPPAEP
- Method description: BLI Octet RED384, ABP on AHQ sensor, 100 nM antigen, single concentration;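 note: association and dissociation each tracked over 180 s, with dissociation run in antigen-free buffer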
Measurement type: pKd
Entry type: numeric. Quantity: pKd, the -log10 of concentration in molar units.

Solved cases below.
# Binder, pKd
rows = [
    ("ABP46 (antibody, human IgG1, kappa, N297A, V domains shown, IgG1 N297A, H1H2-optimized, non-TM) VH: QVQLVQSGAEVKKPGSSVKVSCKASGGTFSSYAISWVRQAPGQGLEWMGGIIPISGFANYAQKFQGRVTITADESTSTAYMELSSLRSEDTAVYYCAREGGHYYSGWPYWGQGTLVTVSS VL: EIVLTQSPATLSLSPGERATLSCRASQSVSSYLAWYQQKPGQAPRLLIYDASNRATGIPARFSGSGSGTDFTLTISSLEPEDFAVYYCQQRLVFPPTFGGGTKVEIKR", 6.96),
    ("ABP13 (antibody, human IgG1, kappa, N297A, V domains shown) VH: QVQLVQSGAEVKKPGSSVKVSCKASGGTFSRGAISWVRQAPGQGLEWMGGIIPIEGTAYYAQKFQGRVTITADESTGTAYMELSSLRSEDTAVYYCARQSDYGLPRGMDVWGQGTTVTVSS VL: DIQLTQSPSSVSASVGDRVTITCRASQGISSWLAWYQQKPGKAPKLLIYGASSLQSGVPSRFSGSGSGTDFTLTISSLQPEDFATYYCQQASLFPPTFGGGTKVEIKR", 8.19),
]

Field: next binder
QUERY: Input ABP17 (antibody, human IgG1, kappa, N297A, V domains shown) VH: QVQLVQSGAEVKKPGSSVKVSCKASGGTFVRYAISWVRQAPGQGLEWMGGIIPIFGEAQYAQRFQGRVTITADESTSTAYMELSSLRSEDTAVYYCAREGYYYGALPYWGQGTLVTVSS VL: EIVLTQSPATLSLSPGERATLSCRASQSVSSYLAWYQQKPGQAPRLLIYDASNRATGIPARFSGSGSGTDFTLTISSLEPEDFAVYYCQQHSVFPPTFGGGTKVEIKR , output reported pKd.
RESULT: 8.34
